TARGET OF ASSAY: Protein mono-ADP-ribosyltransferase TIPARP (Homo sapiens)
Sequence (Q7Z3E1 whole entry): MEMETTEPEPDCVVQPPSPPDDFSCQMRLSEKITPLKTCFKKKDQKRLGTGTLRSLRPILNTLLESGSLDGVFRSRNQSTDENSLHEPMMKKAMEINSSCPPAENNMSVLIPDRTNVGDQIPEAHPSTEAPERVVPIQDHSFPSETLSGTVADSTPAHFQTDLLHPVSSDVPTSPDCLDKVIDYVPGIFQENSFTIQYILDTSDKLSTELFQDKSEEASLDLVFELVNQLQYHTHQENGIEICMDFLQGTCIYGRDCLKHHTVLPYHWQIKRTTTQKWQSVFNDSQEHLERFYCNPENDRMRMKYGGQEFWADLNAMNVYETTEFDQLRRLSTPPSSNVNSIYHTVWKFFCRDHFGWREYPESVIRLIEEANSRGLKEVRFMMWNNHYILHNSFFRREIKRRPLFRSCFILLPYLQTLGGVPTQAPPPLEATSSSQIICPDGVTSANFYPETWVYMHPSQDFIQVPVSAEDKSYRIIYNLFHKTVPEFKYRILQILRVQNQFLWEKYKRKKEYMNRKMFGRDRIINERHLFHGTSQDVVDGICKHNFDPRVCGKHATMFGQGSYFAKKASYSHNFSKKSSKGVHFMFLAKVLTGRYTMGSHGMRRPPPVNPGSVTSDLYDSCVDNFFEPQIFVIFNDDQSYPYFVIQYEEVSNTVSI
pIC50: −log10 of the molar value.
PROPERTY LABEL: pIC50

Cc1c(-c2ccnc(C(F)(F)F)c2)ccc2c1CCNC2=O
4.72

* * *

TARGET OF ASSAY: Protein mono-ADP-ribosyltransferase PARP4 (Homo sapiens)
Sequence (Q9UKK3 whole entry): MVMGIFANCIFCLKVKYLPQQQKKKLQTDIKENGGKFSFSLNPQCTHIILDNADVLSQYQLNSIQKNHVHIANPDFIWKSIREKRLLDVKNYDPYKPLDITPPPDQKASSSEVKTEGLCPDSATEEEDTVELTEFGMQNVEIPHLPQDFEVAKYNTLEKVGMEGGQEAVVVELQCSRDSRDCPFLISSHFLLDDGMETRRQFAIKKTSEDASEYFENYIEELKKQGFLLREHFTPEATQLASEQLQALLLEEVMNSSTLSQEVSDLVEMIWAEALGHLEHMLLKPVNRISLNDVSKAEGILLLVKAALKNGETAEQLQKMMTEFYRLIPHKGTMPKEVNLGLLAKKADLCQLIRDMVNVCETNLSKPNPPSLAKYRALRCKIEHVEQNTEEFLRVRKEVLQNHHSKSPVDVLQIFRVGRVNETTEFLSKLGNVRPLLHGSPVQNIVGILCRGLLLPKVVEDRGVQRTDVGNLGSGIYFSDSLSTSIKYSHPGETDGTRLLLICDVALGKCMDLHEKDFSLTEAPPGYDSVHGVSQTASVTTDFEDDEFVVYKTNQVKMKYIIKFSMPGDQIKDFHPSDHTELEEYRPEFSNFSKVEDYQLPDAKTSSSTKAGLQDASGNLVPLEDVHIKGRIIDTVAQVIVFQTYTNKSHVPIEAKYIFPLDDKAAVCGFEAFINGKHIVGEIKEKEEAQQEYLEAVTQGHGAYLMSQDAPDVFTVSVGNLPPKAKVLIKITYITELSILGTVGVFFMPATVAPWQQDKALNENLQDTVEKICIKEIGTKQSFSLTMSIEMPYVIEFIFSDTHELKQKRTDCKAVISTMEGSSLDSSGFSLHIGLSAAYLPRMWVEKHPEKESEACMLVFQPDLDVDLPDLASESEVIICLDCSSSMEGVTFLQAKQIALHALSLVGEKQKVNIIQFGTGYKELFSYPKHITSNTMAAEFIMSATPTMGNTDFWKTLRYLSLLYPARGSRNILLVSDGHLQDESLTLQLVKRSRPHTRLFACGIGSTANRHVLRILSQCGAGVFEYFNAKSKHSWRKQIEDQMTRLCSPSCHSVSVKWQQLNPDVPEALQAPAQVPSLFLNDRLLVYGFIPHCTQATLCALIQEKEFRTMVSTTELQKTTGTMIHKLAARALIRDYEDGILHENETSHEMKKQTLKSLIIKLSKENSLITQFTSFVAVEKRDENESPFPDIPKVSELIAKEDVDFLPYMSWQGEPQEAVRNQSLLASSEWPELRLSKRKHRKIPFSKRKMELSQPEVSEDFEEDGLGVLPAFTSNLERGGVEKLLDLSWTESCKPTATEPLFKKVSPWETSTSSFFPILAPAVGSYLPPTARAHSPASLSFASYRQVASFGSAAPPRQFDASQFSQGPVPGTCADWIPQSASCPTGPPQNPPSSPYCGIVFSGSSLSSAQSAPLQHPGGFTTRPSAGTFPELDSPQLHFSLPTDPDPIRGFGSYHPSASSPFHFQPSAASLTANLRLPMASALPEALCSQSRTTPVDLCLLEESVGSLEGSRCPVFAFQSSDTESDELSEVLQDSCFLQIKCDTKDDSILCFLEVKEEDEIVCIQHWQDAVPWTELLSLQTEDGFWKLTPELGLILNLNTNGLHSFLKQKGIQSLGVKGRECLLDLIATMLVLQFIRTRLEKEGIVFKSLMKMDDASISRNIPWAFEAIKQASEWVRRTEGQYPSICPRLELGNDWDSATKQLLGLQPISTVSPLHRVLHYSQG
PROPERTY LABEL: IC50

Cc1c(-c2ccnc(C(F)(F)F)c2)ccc2c1CCNC2=O
> 100 µM

* * *

TARGET OF ASSAY: Protein mono-ADP-ribosyltransferase PARP10 (Homo sapiens, UniProt Q53GL7)
Sequence (Q53GL7 whole entry): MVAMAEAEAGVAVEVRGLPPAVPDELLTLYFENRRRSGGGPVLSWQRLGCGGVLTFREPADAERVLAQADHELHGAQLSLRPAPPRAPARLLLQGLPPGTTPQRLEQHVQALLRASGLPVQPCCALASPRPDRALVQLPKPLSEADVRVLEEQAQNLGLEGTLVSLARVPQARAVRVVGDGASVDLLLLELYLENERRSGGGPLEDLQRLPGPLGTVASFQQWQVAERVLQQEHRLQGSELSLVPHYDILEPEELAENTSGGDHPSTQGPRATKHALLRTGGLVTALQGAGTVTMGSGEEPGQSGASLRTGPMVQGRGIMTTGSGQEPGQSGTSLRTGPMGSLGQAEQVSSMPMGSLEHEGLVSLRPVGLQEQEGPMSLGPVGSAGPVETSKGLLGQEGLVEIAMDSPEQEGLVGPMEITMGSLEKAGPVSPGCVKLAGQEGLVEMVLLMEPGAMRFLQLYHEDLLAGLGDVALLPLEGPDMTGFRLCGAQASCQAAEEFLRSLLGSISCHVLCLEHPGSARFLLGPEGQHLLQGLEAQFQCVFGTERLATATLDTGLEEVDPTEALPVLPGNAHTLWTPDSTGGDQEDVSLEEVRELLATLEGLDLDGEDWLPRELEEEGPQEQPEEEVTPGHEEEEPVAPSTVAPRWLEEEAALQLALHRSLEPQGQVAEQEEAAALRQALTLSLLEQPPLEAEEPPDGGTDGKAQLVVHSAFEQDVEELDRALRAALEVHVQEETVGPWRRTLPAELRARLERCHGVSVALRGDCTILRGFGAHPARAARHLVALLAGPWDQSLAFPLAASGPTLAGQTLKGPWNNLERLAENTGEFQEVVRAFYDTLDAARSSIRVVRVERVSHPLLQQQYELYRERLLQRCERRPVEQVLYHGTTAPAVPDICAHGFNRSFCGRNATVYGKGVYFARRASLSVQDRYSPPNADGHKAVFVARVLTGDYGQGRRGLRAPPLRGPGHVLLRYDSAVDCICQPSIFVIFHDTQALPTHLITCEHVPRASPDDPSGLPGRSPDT
API: label(entry) gives t if the entry's IC50 is strictly smaller than 2000 nM; on equality or larger values it gives f.

O=C1NCCc2cc(Br)ccc21
f
Cc1ccc2c(c1)CCNC2=O
f
Cc1c(-c2cccnc2)ccc2c1CCNC2=O
f
Cc1c(-c2ccc3[nH]ccc3c2)ccc2c1CCNC2=O
t
O=C1NCCc2c1cccc2-c1ccccc1
f
O=C1NCCc2cc(-c3cccc(F)c3)ccc21
t
Cc1c(-c2cncc(F)c2)ccc2c1CCNC2=O
f
Cc1c(-c2ccccc2)ccc2c1CCNC2=O
t
Cc1c(-c2cnc3[nH]ccc3c2)ccc2c1CCNC2=O
t
